Below, each of the compounds is paired with its reported EC50 value.
Target: Tyrosine-protein kinase ABL1 (Homo sapiens)
Sequence (P00519 whole entry): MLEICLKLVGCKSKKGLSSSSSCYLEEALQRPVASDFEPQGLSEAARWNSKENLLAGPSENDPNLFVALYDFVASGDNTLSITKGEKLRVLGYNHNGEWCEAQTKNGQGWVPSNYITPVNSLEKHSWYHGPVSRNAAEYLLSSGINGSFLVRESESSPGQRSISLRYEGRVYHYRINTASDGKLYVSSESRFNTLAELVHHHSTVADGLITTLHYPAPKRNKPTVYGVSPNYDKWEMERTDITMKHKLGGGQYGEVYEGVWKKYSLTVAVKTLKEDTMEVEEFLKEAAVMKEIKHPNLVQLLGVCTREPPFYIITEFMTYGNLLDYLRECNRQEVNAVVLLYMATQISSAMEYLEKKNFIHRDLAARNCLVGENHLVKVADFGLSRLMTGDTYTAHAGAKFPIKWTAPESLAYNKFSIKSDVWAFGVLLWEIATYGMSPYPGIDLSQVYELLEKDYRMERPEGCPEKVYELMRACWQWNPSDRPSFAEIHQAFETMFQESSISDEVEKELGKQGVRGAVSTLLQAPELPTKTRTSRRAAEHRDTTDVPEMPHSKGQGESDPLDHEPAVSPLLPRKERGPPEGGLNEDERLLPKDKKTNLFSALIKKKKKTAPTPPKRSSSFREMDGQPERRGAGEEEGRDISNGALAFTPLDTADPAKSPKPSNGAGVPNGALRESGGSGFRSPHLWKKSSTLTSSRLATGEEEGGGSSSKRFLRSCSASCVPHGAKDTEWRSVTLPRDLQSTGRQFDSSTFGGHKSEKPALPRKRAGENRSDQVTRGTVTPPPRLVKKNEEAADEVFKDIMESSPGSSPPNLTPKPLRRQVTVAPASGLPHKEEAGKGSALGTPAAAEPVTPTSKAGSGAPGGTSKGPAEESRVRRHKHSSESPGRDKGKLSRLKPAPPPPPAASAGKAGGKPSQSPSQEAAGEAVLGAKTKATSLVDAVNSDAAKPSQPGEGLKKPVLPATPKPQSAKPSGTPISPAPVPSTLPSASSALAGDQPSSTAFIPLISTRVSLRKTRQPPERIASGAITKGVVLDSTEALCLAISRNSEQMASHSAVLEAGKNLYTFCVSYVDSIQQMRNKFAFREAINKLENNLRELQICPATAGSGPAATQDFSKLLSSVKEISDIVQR
Assay: Induction of human c-ABL phosphorylation at Y245/Y412 residues in bacmam-induced HEK-MSR2 cell lysates by in-cell Western blot analysis
Format: subcellular, Lysate
READOUT TYPE: EC50 (µM)

COMPOUND	VALUE COMPARATOR	OBSERVED VALUE
N#CCC(=O)Nc1csc(-c2ccc(Cl)c(Cl)c2)c1	>	50.1
CS(=O)(=O)Nc1nc(-c2ccc(Cl)c(Cl)c2)cs1	>	50.1
CC(=O)Nc1nc(-c2cc(Cl)c(Cl)s2)cs1	>	50.1
N#CCC(=O)Nc1cccc(-c2ccc(Cl)c(Cl)c2)n1	>	50.1
N#CCC(=O)NC1=NN(c2ccc(Cl)c(Cl)c2)CC1	=	1
CC(=O)Nc1nc(-c2ccc(Br)s2)cs1	>	50.1
O=C(NC1=NN(c2ccc(Cl)c(Cl)c2)CC1)c1cccnc1	=	0.631
O=C(NC1=NN(c2ccc(Cl)c(Cl)c2)CC1CCO)c1ccncc1 (racemic)	=	3.16
N#CCCC(=O)NC1=NN(c2ccc(Cl)c(Cl)c2)CC1	=	0.794
O=C(NC1=NN(c2ccc(Cl)c(Cl)c2)CC1CCO)c1cccnc1 (racemic)	=	7.94
N#CCC(=O)Nc1nc(-c2ccc(Cl)c(Cl)c2)c[nH]1	=	3.16
CC(=O)Nc1nc(-c2ccc(Cl)c(Cl)c2)cs1	=	31.6
Cc1ncncc1C(=O)NC1=NN(c2ccc(Cl)c(Cl)c2)CC1	=	0.316
O=C(Nc1nc(-c2ccc(Cl)c(Cl)c2)cs1)c1c(F)cccc1F	=	5.01
N#CCC(=O)Nc1ccn(-c2ccc(Cl)c(Cl)c2)n1	=	7.94
N#CCC(=O)Nc1csc(-c2ccc(Cl)c(Cl)c2)n1	=	15.8
N#CCC(=O)Nc1nc(-c2ccc(Cl)c(Cl)c2)ns1	=	10
O=C(NC1=NN(c2ccc(Cl)c(Cl)c2)CC1)c1ccncc1	=	1.58
CC(=O)N[C@@H](C)C(=O)NC1=NN(c2ccc(Cl)c(Cl)c2)CC1	=	7.94
CC(=O)NC1=NN(c2ccc(Cl)c(Cl)c2)C[C@@H]1C	=	0.631
O=C(NC1=NN(c2ccc(Cl)c(Cl)c2)CC1)c1cccnn1	>	50.1
C[C@H]1CN(c2ccc(Cl)c(Cl)c2)N=C1NC(=O)c1cncnc1	=	0.1
O=C1CCCC(C(=O)NC2=NN(c3ccc(Cl)c(Cl)c3)CC2)N1 (stereo not drawn)	=	2.51
CC(=O)Nc1nc(-c2ccc(Cl)c(C)c2)cs1	>	50.1
N#CCC(=O)Nc1nsc(-c2ccc(Cl)c(Cl)c2)n1	=	15.8
N#CCC(=O)Nc1cc(-c2ccc(Cl)c(Cl)c2)cs1	=	20
CC(=O)NC1=NN(c2ccc(Cl)c(Cl)c2)[C@H](C)C1	=	10
O=C(Nc1nc(-c2ccc(Cl)c(Cl)c2)cs1)c1cccnc1	>	50.1
O=C(NC1=NN(c2ccc(Cl)c(Cl)c2)CC1)c1ccccn1	>	50.1
CC(=O)NC1=NN(c2ccc(Cl)c(Cl)c2)C[C@H]1C	=	20
O=C(Nc1nc(-c2ccc(Cl)c(Cl)c2)cs1)C1CC1	>	50.1
O=C1NC(=O)C(c2cn(-c3ccccc3)nc2-c2ccc(F)cc2)N1 (stereo not drawn)	=	0.794
Cn1cnnc1SCC(=O)Nc1nc(-c2ccc(Cl)c(Cl)c2)cs1	=	20
O=C(NC1=NN(c2ccc(Cl)c(Cl)c2)CC1)c1ccncc1F	=	1.58
N#CCC(=O)Nc1nc(-c2ccc(Cl)c(Cl)c2)cs1	=	5.01
O=C(NC1=NN(c2ccc(Cl)c(Cl)c2)CC1)c1cncnc1	=	0.631
CC(=O)NC1=NN(c2ccc(Cl)c(Cl)c2)CC1	=	0.794
NC1=NN(c2ccc(Cl)c(Cl)c2)CC1	=	12.6
CC(=O)Nc1nc(-c2ccc(F)c(Cl)c2)cs1	>	50.1
CC(=O)Nc1nc(-c2ccc(Cl)c(F)c2)cs1	=	50.1
O=C(NC1=NN(c2ccc(Cl)c(Cl)c2)CC1)c1ccnnc1	=	0.501
O=C(Nc1nc(-c2ccc(Cl)c(Cl)c2)cs1)c1cncs1	>	50.1
CC(=O)NC1=NN(c2ccc(Cl)c(Cl)c2)CC1C (racemic)	=	0.501
